# Test system: clinical MDR Staphylococcus epidermidis isolates
# Test method notes: MIC, broth microdilution, 81 clinical MDR strains
# Format: cell-based
# Test context: Staphylococcus epidermidis, clinical strain 52 (Table S2); read-out: MIC
For each entry below, report its MIC value.
Reply numerically in µg/mL, unit not repeated.

## Input MIC lookup needed for O=S(=O)(NC1CCN(CCC(Oc2ccc(C(F)(F)F)cc2)c2cccs2)CC1)c1cccc(Br)c1 (stereo not drawn) , thanks.
## Output 50

## Input What would you report for O=C(Nc1cccc(Cl)c1)NC1CCN(CCC(Oc2ccc(C(F)(F)F)cc2)c2cccs2)CC1 (stereo not drawn) ?
## Output 3.12

## Input What would you report for O=S(=O)(NC1CCN(CCC(Oc2ccc(C(F)(F)F)cc2)c2cccs2)CC1)c1cccc(C(F)(F)F)c1 (stereo not drawn) ?
## Output 50

## Input What would you report for O=S(=O)(NC1CCN(CCC(Oc2ccc(C(F)(F)F)cc2)c2cccs2)CC1)c1cccc(Cl)c1 (stereo not drawn) ?
## Output 3.12

## Input What would you report for CC(=O)NC[C@H]1CN(c2ccc(N3CCOCC3)c(F)c2)C(=O)O1 [linezolid, reference compound] ?
## Output 0.4

## Input What would you report for O=S(=O)(NC1CCN(CCC(Oc2ccc(C(F)(F)F)cc2)c2ccccc2)CC1)c1cccc(Cl)c1 (stereo not drawn) ?
## Output 3.12
